Reported values of GI50 for individual entries
Test system: NCI-H23 lung
Experiment: NCI tumour cell line growth inhibition, 48 h
assay.readout: GI50

>>> result("Oc1ccc(CCNc2nc3ccccc3c3[nH]c4ccccc4c23)cc1")
"1.96 µM"
>>> result("Cc1cc(N(CCCl)CCCl)ccc1/C=N\\NC(=O)c1cccnc1")
"18.4 µM"
>>> result("COc1ccc(C[C@H](N)C(=O)N[C@@H]2[C@@H](CO)OC(n3cnc4c(N(C)C)ncnc43)[C@@H]2O)cc1 (stereo partly specified)")
"0.553 µM"
>>> result("Cn1c(=O)c(-c2c(Cl)cccc2Cl)cc2cnc(Nc3ccc(N4CCOCC4)cc3)nc21")
"< 0.01 µM"
>>> result("CCn1c(SC)nnc1-c1cc2c([nH]c3ccccc32)c(-c2cccc(O)c2)n1")
"4.51 µM"
>>> result("O=C(Nc1cccc(C(F)(F)F)c1)Nc1ccc(OCc2nnc(-c3ccccc3)o2)c(F)c1")
"4.49 µM"
